molecular target: ScLsb2; experiment: SPOT peptide array binding signal intensity (averaged, normalized) (arbitrary units (background-subtracted, floor 0; scale differs between SH3 domains)); higher = stronger binding of the SH3 domain to the peptide
METRIC_NAME: SPOT peptide array binding signal intensity
Just the number, please, no unit attached.

Below: 2 binders and their reported SPOT peptide array binding signal intensity.
{"BINDER": "RLSRLLLSLPPESFT", "EXPERIMENTAL_RESULT": 9}
{"BINDER": "VTHRLRISIPGITGR", "EXPERIMENTAL_RESULT": 25}

In the following, a different binder is considered.
Which SPOT peptide array binding signal intensity value is on record for VDFTLPPPPPPPGLD ? 1.5

Data provenance is the supplement of paper PMC4466140.
